measured-on: human TLR7 (Homo sapiens)
Sequence (Q9NYK1 27-1049): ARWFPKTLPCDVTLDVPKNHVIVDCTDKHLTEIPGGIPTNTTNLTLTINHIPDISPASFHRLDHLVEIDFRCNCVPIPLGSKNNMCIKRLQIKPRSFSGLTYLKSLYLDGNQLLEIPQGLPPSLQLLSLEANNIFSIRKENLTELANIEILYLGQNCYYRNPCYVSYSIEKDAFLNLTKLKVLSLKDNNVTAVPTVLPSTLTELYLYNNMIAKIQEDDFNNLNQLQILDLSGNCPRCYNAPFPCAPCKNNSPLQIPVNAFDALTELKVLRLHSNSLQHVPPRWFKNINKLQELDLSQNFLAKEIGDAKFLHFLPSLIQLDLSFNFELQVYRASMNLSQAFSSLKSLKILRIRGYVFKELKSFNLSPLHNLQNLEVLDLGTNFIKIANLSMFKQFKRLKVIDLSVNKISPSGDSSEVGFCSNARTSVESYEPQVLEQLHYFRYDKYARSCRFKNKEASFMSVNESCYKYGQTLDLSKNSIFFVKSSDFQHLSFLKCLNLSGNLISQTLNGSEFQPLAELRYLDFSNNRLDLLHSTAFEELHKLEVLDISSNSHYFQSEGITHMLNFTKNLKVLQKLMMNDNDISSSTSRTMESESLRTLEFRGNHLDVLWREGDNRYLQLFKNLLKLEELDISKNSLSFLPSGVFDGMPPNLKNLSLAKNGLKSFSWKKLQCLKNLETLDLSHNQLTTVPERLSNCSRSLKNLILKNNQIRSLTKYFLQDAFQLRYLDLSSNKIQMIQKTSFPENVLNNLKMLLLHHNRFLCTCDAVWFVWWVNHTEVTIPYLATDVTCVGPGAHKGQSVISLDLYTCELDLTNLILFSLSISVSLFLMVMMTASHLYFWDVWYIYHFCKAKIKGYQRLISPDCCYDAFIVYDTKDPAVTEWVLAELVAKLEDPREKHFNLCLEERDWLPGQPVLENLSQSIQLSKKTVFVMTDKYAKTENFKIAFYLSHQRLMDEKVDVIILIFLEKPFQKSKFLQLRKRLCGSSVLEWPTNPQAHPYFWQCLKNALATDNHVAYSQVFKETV
procedure-text: TLR7 inhibition reporter assay (HEK-Blue cells, secreted embryonic alkaline phosphatase reporter)
cond: HEK-Blue cells overexpressing human TLR7, stimulated with gardiquimod 7.5 μM; read-out: TLR 7 IC50
readout-name: IC50
Respond with a number, then the unit of measure.

Some solved cases for reference:
COCCN1C2CCC1CC(N1CCC(c3cc(C)c4nc(-c5ccc(S(C)(=O)=O)cc5)n(C)c4c3)CC1)C2 (single isomer, unassigned) [Example 163]; 6.2 µM
Cc1cc(-c2ccc(CN3CCC(N(C)C)CC3)c(F)c2)cc2c1nc(-c1ccc(S(C)(=O)=O)cc1)n2C; 4.2 µM

Now let's try a different one.
Query block: Name the recorded IC50 of the item Cn1c(-c2ccc(S(C)(=O)=O)cc2)nc2cc(F)c(C3CCN(C4CCN(C5CC5)CC4)CC3)cc21 in your answer.
Result block: 35.6 µM
